All figures here come from PubChem BioAssay (NCATS).

# System: PA-1
# experiment-summary: Primary qHTS to identify gynecologic anti-cancer compounds using libraries of approved drugs and bioactive compounds (AID 1345084); also: nearly all actives have a fitted effect of over 55% in size
# test-context: Gynecologic cancer cell panel viability, ATPlite luminescence, 48 h; series mostly up to 57.5 µM
Inconclusive results are not listed. Calls of active or inactive are those of the source. Calls follow the shape of the dose curve; as a rule, active = well fitted cell-killing curve with a large enough effect; inconclusive = small, poorly fitted or top-dose-only effect, or effect the other way; inactive = flat fitted curve, though single readings scatter.

[
  {
    "compound": "C[C@]12C[C@@H](O)[C@@H]3C[C@@]1(O[C@@H]1O[C@H](CO)[C@@H](O)[C@H](O)[C@H]1O)[C@]3(COC(=O)c1ccccc1)C(=O)O2",
    "outcome": "inactive"
  },
  {
    "compound": "N#CC(c1ccnc(OCc2ccc(CN3CCOCC3)cc2)n1)c1nc2ccccc2s1 (centres undefined)",
    "outcome": "inactive"
  },
  {
    "compound": "CC(=O)NC1C(OC(C)(C)C2CCC3(C)C=C(C4CCC5C4(C)CC(O)C4OC(C(C)(C)O)CCC45C)CCC3O2)OC(CO)C(O)C1O (centres undefined)",
    "outcome": "inactive"
  },
  {
    "compound": "Cc1ccc(C)c(OCCn2cc(C(=O)O)c3ccccc32)c1",
    "outcome": "inactive"
  }
]
